All figures here come from patent US9981930B1.

Target: MAGL (Mus musculus, UniProt O35678)
Construct: from tissue; host or cells: brain of wild-type C57Bl/6J mice
Sequence (O35678 1-303): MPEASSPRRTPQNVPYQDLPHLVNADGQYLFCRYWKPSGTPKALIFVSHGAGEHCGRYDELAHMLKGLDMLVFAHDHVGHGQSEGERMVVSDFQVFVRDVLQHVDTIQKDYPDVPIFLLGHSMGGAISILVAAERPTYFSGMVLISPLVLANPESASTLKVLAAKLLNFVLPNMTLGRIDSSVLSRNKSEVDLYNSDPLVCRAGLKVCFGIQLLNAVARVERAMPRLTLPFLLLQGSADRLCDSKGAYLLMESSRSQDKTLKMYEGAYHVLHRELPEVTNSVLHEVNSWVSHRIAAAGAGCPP
Assay: Mouse brain proteomes from inhibitor treated mice (ex vivo activity-based protein profiling after oral gavage)
Type: in vivo
Conditions: 5 mg/kg oral gavage, C57Bl/6J mice, brain proteomes 4 h following administration
READOUT_KIND: inhibition at 5 mg/kg

These recorded examples may help you get a feel for the data.
COMPOUND: C[C@H](Nc1cc(C(F)(F)F)ccc1CN1CCN(C(=O)OC(C(F)(F)F)C(F)(F)F)CC1)C(=O)O [Example 7]
READOUT_KIND: inhibition at 5 mg/kg
REPORTED_MEASUREMENT: 25 to 75%

COMPOUND: O=C(O)CNc1cc(Cl)ccc1CN1CCN(C(=O)OC(C(F)(F)F)C(F)(F)F)CC1 [Example 3]
READOUT_KIND: inhibition at 5 mg/kg
REPORTED_MEASUREMENT: 25 to 75%

COMPOUND: O=C(O)CCCNc1cc(Cl)ccc1CN1CCN(C(=O)OC(C(F)(F)F)C(F)(F)F)CC1 [Example 2]
READOUT_KIND: inhibition at 5 mg/kg
REPORTED_MEASUREMENT: 25 to 75%

Please look at the items below and tell me inhibition at 5 mg/kg for each one, in order.
1. O=C(O)CCNc1cc(C(F)(F)F)ccc1CN1CCN(C(=O)OC(C(F)(F)F)C(F)(F)F)CC1 [Example 4]
2. O=C(O)CCCNc1cc(C(F)(F)F)ccc1CN1CCN(C(=O)OC(C(F)(F)F)C(F)(F)F)CC1 [Example 1]

1. > 75%
2. > 75%
